IC50 by entry:
- Test system: T. cruzi-infected H9C2 cardiomyocytes, high-content imaging
- Assay info: intracellular T. cruzi amastigote inhibition, imaging, H9C2 host cardiomyocytes, host toxicity (AID 1159565);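 also: infected cells incubated 72 h after plating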
- Test context: measured here: amastigotes per cell
Value kind: IC50 (nM)

COc1cccc(NS(=O)(=O)c2ccc3[nH]cc(C(=O)NCCC(C)C)c(=O)c3c2)c1: 16000
Cc1ccc(NC(C)C(=O)Nc2ccc(C#N)cc2)cc1S(=O)(=O)N1CCCCC1 (stereo unspecified): 7900
CC(=O)Nc1cccc(Nc2ncnc3nc[nH]c23)c1: 25000
Cc1nn(C2CCS(=O)(=O)C2)c(C)c1CN(C)C(=O)C=Cc1sc2ccccc2c1Cl (stereo unspecified): 320
Cc1[nH]nc(-c2nc3ccccc3[nH]2)c1C(=O)NC1CCCNC1 (stereo unspecified): 40
Cc1c(C(=O)NCCCCn2ccnc2)oc2c(C)cccc12: 500
O=[N+]([O-])c1ccc(-c2nnn(-c3ccc(Cl)cc3)n2)o1: 79
CS(=O)(=O)c1ccc(Nc2nccc(-c3cnn4ncccc34)n2)cc1: 1000
O=C(NCCc1csc(-c2cccc(F)c2)n1)c1ccco1: 1300
Cc1cc(NC(=O)C2CC2)ccc1OC1CCN(Cc2ccco2)CC1: 20000
O=S(=O)(c1cccc(CSc2nnc(-c3ccc4c(c3)OCO4)o2)c1)N1CCOCC1: 40

The measured values listed here are drawn from PubChem BioAssay AID1159565.
